# TARGET_OR_TEST_SYSTEM: purified cellobiase from Aspergillus terreus (ATCC 20514)
# TEST: Glucose inhibition of purified cellobiase, PNPG as substrate
# Type: biochemical
# CONDITION_PARAMETERS: competitive inhibitor; p-nitrophenyl-β-D-glucoside as substrate; read-out: Ki dissociation constant for glucose
REPORTED_ENDPOINT: pKi
As a rule, pKi stands for the negative log10 of the concentration, concentration in M.

Item OC[C@H]1OC(O)[C@H](O)[C@@H](O)[C@@H]1O (stereo partly shown) [glucose] ; assay system purified cellobiase from Aspergillus terreus (ATCC 20514); pKi reported as 2.46
